molecular target: RIO kinase 2 (RIOK2) (Homo sapiens)
Sequence (Q9BVS4 1-329): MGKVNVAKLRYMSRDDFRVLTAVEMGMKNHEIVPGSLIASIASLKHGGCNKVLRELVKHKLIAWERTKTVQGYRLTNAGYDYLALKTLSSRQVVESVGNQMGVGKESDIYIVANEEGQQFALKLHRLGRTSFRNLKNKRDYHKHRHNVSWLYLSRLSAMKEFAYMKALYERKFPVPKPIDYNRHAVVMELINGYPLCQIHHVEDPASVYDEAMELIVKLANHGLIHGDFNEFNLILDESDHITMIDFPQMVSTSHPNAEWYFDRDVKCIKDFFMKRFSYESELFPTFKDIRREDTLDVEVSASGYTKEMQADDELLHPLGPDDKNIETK
assay metric: Kd (nM)
Please give a number only; it is taken to be in nM.

Return reported Kd; argument: O=C(Cc1ccc2ccccc2c1)Nc1ccccn1
393
